- EXPERIMENTAL_TARGET: Muscle fructose-1,6-bisphosphatase (FBP2), D187L mutant (Homo sapiens, UniProt O00757, D188L)
- Construct: tag-free FBP2, expressed in E. coli
- Sequence (O00757 2-339 D188L): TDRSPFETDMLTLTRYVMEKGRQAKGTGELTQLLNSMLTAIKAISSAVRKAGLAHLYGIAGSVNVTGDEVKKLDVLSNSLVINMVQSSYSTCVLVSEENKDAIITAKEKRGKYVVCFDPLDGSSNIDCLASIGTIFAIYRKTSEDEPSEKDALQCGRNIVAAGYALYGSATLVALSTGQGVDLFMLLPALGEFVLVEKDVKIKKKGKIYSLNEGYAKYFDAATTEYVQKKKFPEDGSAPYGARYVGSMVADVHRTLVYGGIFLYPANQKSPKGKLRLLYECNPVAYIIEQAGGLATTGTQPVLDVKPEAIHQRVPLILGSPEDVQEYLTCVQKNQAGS
- EXPERIMENTAL_PROTOCOL: coupled enzyme activity assay; oligomerization by sedimentation velocity ultracentrifugation
READOUT_TYPE: pIC50
// field semantics: pIC50 = negative decimal log of concentration (mol/L)

Query: Need pIC50, item Nc1ncnc2c1ncn2[C@@H]1O[C@H](COP(=O)(O)O)[C@@H](O)[C@H]1O
Reply: 5.84

* * *

- EXPERIMENTAL_TARGET: Muscle fructose-1,6-bisphosphatase (FBP2), wild-type (Homo sapiens)
- Construct: tag-free WT FBP2, expressed in E. coli
- Sequence (O00757 2-339): as the sequence (O00757 2-339 D188L) above, with L187D counted along it
- EXPERIMENTAL_PROTOCOL: coupled glucose 6-phosphate isomerase/glucose 6-phosphate dehydrogenase activity assay; AMP-induced tetramerization by sedimentation velocity ultracentrifugation
- Assay type: biochemical
READOUT_TYPE: IC50 (µM)
// return numeric value only (unit: µM, not printed)

Query: Need IC50, item Nc1ncnc2c1ncn2[C@@H]1O[C@H](COP(=O)(O)O)[C@@H](O)[C@H]1O
Reply: 0.59
